molecular target: CPP32 (Homo sapiens); assay: Dissociation constant Ki and irreversible rate constant k3 for irreversible inhibitors (CPP32); format: biochemical; settings: continuous assay 60 min, reaction initiated by adding enzyme to substrate-inhibitor mixture
pKi: −log10 of the molar value.

compound	target-entity	pKi
CC(C)[C@H](NC(=O)C(=O)Nc1ccccc1Br)C(=O)N[C@@H](CC(=O)O)C(=O)COc1c(F)c(F)cc(F)c1F	CPP32 (Homo sapiens)	7.20
CC(C)[C@H](NC(=O)C(=O)Nc1ccccc1)C(=O)N[C@@H](CC(=O)O)C(=O)COc1c(F)c(F)cc(F)c1F	CPP32 (Homo sapiens)	6.41
C[C@H](NC(=O)C(=O)Nc1ccccc1C(C)(C)C)C(=O)N[C@@H](CC(=O)O)C(=O)COC(=O)c1c(Cl)cccc1Cl [Example 76]	CPP32 (Homo sapiens)	7.07
C[C@H](NC(=O)C(=O)Nc1cc(C(C)(C)C)ccc1C(C)(C)C)C(=O)N[C@@H](CC(=O)O)C(=O)COc1c(F)c(F)cc(F)c1F	CPP32 (Homo sapiens)	7.20
C[C@H](NC(=O)C(=O)Nc1ccccc1I)C(=O)N[C@@H](CC(=O)O)C(=O)COP(=O)(c1ccccc1)c1ccccc1	CPP32 (Homo sapiens)	6.79
CC(C)[C@H](NC(=O)C(=O)Nc1cccc2ccccc12)C(=O)N[C@@H](CC(=O)O)C(=O)COc1c(F)cccc1F	CPP32 (Homo sapiens)	7.39
Cc1cc(OCC(=O)[C@H](CC(=O)O)NC(=O)[C@@H](NC(=O)C(=O)Nc2cccc3ccccc23)C(C)C)cc(=O)o1	CPP32 (Homo sapiens)	7.59
C[C@H](NC(=O)C(=O)Nc1ccccc1C(C)(C)C)C(=O)N[C@@H](CC(=O)O)C(=O)COC(=O)c1c(Cl)cccc1Cl [Example 37]	CPP32 (Homo sapiens)	7.11
C[C@H](NC(=O)C(=O)Nc1ccccc1C(C)(C)C)C(=O)N[C@@H](CC(=O)O)C(=O)COc1ccccc1F	CPP32 (Homo sapiens)	7.22
CC(C)[C@H](NC(=O)C(=O)Nc1cccc2ccccc12)C(=O)N[C@@H](CC(=O)O)C(=O)COc1c(F)cc(F)cc1F	CPP32 (Homo sapiens)	7.41
C[C@H](NC(=O)C(=O)Nc1ccccc1-c1ccccc1)C(=O)N[C@@H](CC(=O)O)C(=O)COP(=O)(c1ccccc1)c1ccccc1	CPP32 (Homo sapiens)	7.38
CC(C)[C@H](NC(=O)C(=O)Nc1cccc2ccccc12)C(=O)N[C@@H](CC(=O)O)C(=O)COc1c(-c2ccccc2)oc2ccccc2c1=O	CPP32 (Homo sapiens)	7.23
C[C@H](NC(=O)C(=O)NCc1ccccc1)C(=O)N[C@@H](CC(=O)O)C(=O)COC(=O)c1c(Cl)cccc1Cl	CPP32 (Homo sapiens)	7.54

====

target: CPP32 (Homo sapiens, UniProt P42574); assay: Dissociation constant Ki and irreversible rate constant k3 for irreversible inhibitors (CPP32); format: biochemical; settings: continuous assay 60 min, reaction initiated by adding enzyme to substrate-inhibitor mixture
Sequence (P42574 29-175 limits assumed, species assumed): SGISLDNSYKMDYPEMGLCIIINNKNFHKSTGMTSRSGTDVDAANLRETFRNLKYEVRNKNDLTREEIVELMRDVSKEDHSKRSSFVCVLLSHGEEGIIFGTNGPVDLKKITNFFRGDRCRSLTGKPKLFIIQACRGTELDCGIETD
Sequence (P42574 176-277 limits assumed, species assumed): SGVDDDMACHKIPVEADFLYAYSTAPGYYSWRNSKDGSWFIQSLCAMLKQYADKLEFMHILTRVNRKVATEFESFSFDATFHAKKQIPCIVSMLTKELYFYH
pKi: −log10 of the molar value.
This section presents compounds with their documented pKi values.

compound	pKi
C[C@H](NC(=O)C(=O)Nc1ccccc1I)C(=O)N[C@@H](CC(=O)O)C(=O)COC(=O)c1c(Cl)cccc1Cl [Example 38]	7.89
C[C@H](NC(=O)C(=O)Nc1ccccc1F)C(=O)N[C@@H](CC(=O)O)C(=O)COc1c(F)c(F)cc(F)c1F	7.55
C[C@H](NC(=O)C(=O)Nc1ccccc1-c1ccccc1)C(=O)N[C@@H](CC(=O)O)C(=O)COC(=O)c1c(Cl)cccc1Cl	7.82
C[C@H](NC(=O)C(=O)NCCc1ccccc1)C(=O)N[C@@H](CC(=O)O)C(=O)COP(=O)(c1ccccc1)c1ccccc1	7.03
C[C@H](NC(=O)C(=O)NC1CCCCC1)C(=O)N[C@@H](CC(=O)O)C(=O)COP(=O)(c1ccccc1)c1ccccc1	7.02
C[C@H](NC(=O)C(=O)Nc1ccccc1I)C(=O)N[C@@H](CC(=O)O)C(=O)COC(=O)c1c(Cl)cccc1Cl [Example 75]	6.98
CC(C)[C@H](NC(=O)C(=O)Nc1c(F)cccc1F)C(=O)N[C@@H](CC(=O)O)C(=O)COc1c(F)c(F)cc(F)c1F	6.99

====

target: MCH-2 (Homo sapiens, UniProt P55212); assay: Dissociation constant Ki and irreversible rate constant k3 for irreversible inhibitors (Mch2); format: biochemical

compound	Ki, nM
C[C@H](NC(=O)C(=O)NC12CC3CC(CC(C3)C1)C2)C(=O)N[C@@H](CC(=O)O)C(=O)COC(=O)c1c(Cl)cccc1Cl [Example 54]	120
C[C@H](NC(=O)C(=O)NC12CC3CC(CC(C3)C1)C2)C(=O)N[C@@H](CC(=O)O)C(=O)COP(=O)(c1ccccc1)c1ccccc1 [Example 53]	42

====

Biological target: MCH-2 (Homo sapiens)
Sequence (P55212 24-179 limits assumed): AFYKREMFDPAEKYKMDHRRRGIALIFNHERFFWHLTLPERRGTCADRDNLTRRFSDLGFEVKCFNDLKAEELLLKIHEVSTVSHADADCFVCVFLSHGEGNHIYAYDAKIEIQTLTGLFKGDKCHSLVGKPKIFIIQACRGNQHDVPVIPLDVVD
Sequence (P55212 194-293 limits assumed): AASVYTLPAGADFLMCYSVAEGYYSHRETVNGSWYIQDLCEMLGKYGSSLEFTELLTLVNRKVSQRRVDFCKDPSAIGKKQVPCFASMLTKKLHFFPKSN
Test: Dissociation constant Ki and irreversible rate constant k3 for irreversible inhibitors (Mch2)
Type: biochemical
Details: continuous assay 60 min, reaction initiated by adding enzyme to substrate-inhibitor mixture
Labelling field: enter criterion met if recorded Ki is less than 40 nM. Enter criterion not met if it equals or exceeds that cut-off.

molecule	assigned-class
CC(C)[C@H](NC(=O)C(=O)Nc1ccccc1-c1ccccc1)C(=O)N[C@@H](CC(=O)O)C(=O)COc1c(F)c(F)cc(F)c1F	criterion not met
CC(C)[C@H](NC(=O)C(=O)Nc1ccccc1F)C(=O)N[C@@H](CC(=O)O)C(=O)COc1c(F)c(F)cc(F)c1F	criterion not met
C[C@H](NC(=O)C(=O)Nc1cc(C(C)(C)C)ccc1C(C)(C)C)C(=O)N[C@@H](CC(=O)O)C(=O)COP(=O)(c1ccccc1)c1ccccc1	criterion met
C[C@H](NC(=O)C(=O)Nc1cc(C(F)(F)F)ccc1N1CCOCC1)C(=O)N[C@@H](CC(=O)O)C(=O)COP(=O)(c1ccccc1)c1ccccc1	criterion met
CC(C)[C@H](NC(=O)C(=O)Nc1cccc2ccccc12)C(=O)N[C@@H](CC(=O)O)C(=O)COc1ccc(O)cc1	criterion met
C[C@H](NC(=O)C(=O)Nc1cc(C(C)(C)C)ccc1C(C)(C)C)C(=O)N[C@@H](CC(=O)O)C(=O)COc1c(F)c(F)cc(F)c1F	criterion met
CC(C)[C@H](NC(=O)C(=O)NC12CC3CC(CC(C3)C1)C2)C(=O)N[C@@H](CC(=O)O)C(=O)COc1c(F)c(F)cc(F)c1F	criterion not met
C[C@H](NC(=O)C(=O)Nc1ccccc1F)C(=O)N[C@@H](CC(=O)O)C(=O)COc1c(F)c(F)cc(F)c1F	criterion met
CC(C)[C@H](NC(=O)C(=O)Nc1ccncc1)C(=O)N[C@@H](CC(=O)O)C(=O)COc1c(F)c(F)cc(F)c1F	criterion not met
CC(C)[C@H](NC(=O)C(=O)Nc1cc(C(C)(C)C)ccc1C(C)(C)C)C(=O)N[C@@H](CC(=O)O)C(=O)COc1c(F)c(F)cc(F)c1F	criterion not met
CC(C)[C@H](NC(=O)C(=O)Nc1c(F)cccc1F)C(=O)N[C@@H](CC(=O)O)C(=O)COc1c(F)c(F)cc(F)c1F	criterion met
CC(C)[C@H](NC(=O)C(=O)Nc1cccc2ccccc12)C(=O)N[C@@H](CC(=O)O)C(=O)COP(C)(=O)c1ccccc1 (stereo partly shown)	criterion met
C[C@H](NC(=O)C(=O)NCCc1ccccc1)C(=O)N[C@@H](CC(=O)O)C(=O)COP(=O)(c1ccccc1)c1ccccc1	criterion met

====

target: MCH-5 (Homo sapiens, UniProt Q14790); test: Dissociation constant Ki and irreversible rate constant k3 for irreversible inhibitors (Mch5); type: biochemical; conditions: continuous assay 60 min, reaction initiated by adding enzyme to substrate-inhibitor mixture
Sequence (Q14790 217-374 limits assumed, species assumed): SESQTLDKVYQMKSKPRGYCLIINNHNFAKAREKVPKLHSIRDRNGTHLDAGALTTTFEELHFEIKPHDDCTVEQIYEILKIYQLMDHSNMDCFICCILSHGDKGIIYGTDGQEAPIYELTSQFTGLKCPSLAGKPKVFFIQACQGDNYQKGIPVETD
Sequence (Q14790 385-479 limits assumed, species assumed): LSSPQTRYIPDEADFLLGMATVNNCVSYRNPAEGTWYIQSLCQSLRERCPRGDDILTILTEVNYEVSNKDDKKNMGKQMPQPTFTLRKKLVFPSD

compound	Ki (nM)
CC(C)[C@H](NC(=O)C(=O)Nc1ccccc1I)C(=O)N[C@@H](CC(=O)O)C(=O)COc1c(F)c(F)cc(F)c1F [Example 107]	4
C[C@H](NC(=O)C(=O)NCc1cccc2ccccc12)C(=O)N[C@@H](CC(=O)O)C(=O)COc1c(F)c(F)cc(F)c1F [Example 33]	9.7
C[C@H](NC(=O)C(=O)Nc1cc(C(C)(C)C)ccc1C(C)(C)C)C(=O)N[C@@H](CC(=O)O)C(=O)COP(=O)(c1ccccc1)c1ccccc1 [Example 59]	5.5
C[C@H](NC(=O)C(=O)Nc1cccc2c1CCCC2)C(=O)N[C@@H](CC(=O)O)C(=O)COc1c(F)c(F)cc(F)c1F [Example 50]	74
CC(C)[C@H](NC(=O)C(=O)NCc1ccccc1)C(=O)N[C@@H](CC(=O)O)C(=O)COc1c(F)c(F)cc(F)c1F [Example 79]	5
C[C@H](NC(=O)C(=O)Nc1ccccc1C(C)(C)C)C(=O)N[C@@H](CC(=O)O)C(=O)COc1ccccc1F [Example 31]	45
COC(=O)c1cc(OCC(=O)[C@H](CC(=O)O)NC(=O)[C@@H](NC(=O)C(=O)Nc2cccc3ccccc23)C(C)C)no1 [Example 13]	23
CC(C)[C@H](NC(=O)C(=O)Nc1ccccc1)C(=O)N[C@@H](CC(=O)O)C(=O)COc1c(F)c(F)cc(F)c1F [Example 82]	5
C[C@H](NC(=O)C(=O)Nc1cc(C(C)(C)C)ccc1C(C)(C)C)C(=O)N[C@@H](CC(=O)O)C(=O)COc1c(F)c(F)cc(F)c1F [Example 40]	10
CC(C)[C@H](NC(=O)C(=O)Nc1cccc2ccccc12)C(=O)N[C@@H](CC(=O)O)C(=O)COc1c(-c2ccccc2)oc2ccccc2c1=O [Example 9]	453
CC(C)[C@H](NC(=O)C(=O)Nc1ccccc1Cc1ccccc1)C(=O)N[C@@H](CC(=O)O)C(=O)COc1c(F)c(F)cc(F)c1F [Example 84]	24
CC(C)[C@H](NC(=O)C(=O)NC12CC3CC(CC(C3)C1)C2)C(=O)N[C@@H](CC(=O)O)C(=O)COc1c(F)c(F)cc(F)c1F [Example 89]	40
C[C@H](NC(=O)C(=O)Nc1ccccc1F)C(=O)N[C@@H](CC(=O)O)C(=O)COC(=O)c1c(Cl)cccc1Cl [Example 39]	40
C[C@H](NC(=O)C(=O)Nc1cc(C(C)(C)C)ccc1C(C)(C)C)C(=O)N[C@@H](CC(=O)O)C(=O)COC(=O)c1c(Cl)cccc1Cl [Example 60]	14
CCCCCCCc1ccc(NC(=O)C(=O)N[C@H](C(=O)N[C@@H](CC(=O)O)C(=O)COc2c(F)c(F)cc(F)c2F)C(C)C)cc1 [Example 94]	12
C[C@H](NC(=O)C(=O)Nc1ccccc1C(C)(C)C)C(=O)N[C@@H](CC(=O)O)C(=O)COP(=O)(c1ccccc1)c1ccccc1 [Example 32]	10
C[C@H](NC(=O)C(=O)Nc1cccc2c1CCCC2)C(=O)N[C@@H](CC(=O)O)C(=O)COC(=O)c1c(Cl)cccc1Cl [Example 49]	4
CC(C)[C@H](NC(=O)C(=O)Nc1cccc2ccccc12)C(=O)N[C@@H](CC(=O)O)C(=O)COc1cccc2ccccc12 [Example 18]	10
CC(C)[C@H](NC(=O)C(=O)Nc1cccc2ccccc12)C(=O)NC(CC(=O)O)C(=O)CF (mixture of isomers) [Example 3]	1.3
CC(C)[C@H](NC(=O)C(=O)Nc1cccc2ccccc12)C(=O)N[C@@H](CC(=O)O)C(=O)COc1ccc(O)cc1 [Example 15]	5.7
CC(C)[C@H](NC(=O)C(=O)Nc1cc(C(C)(C)C)ccc1C(C)(C)C)C(=O)N[C@@H](CC(=O)O)C(=O)COc1c(F)c(F)cc(F)c1F [Example 109]	34
C[C@H](NC(=O)C(=O)Nc1cccc2c1CCCC2)C(=O)N[C@@H](CC(=O)O)C(=O)COC(=O)c1c(Cl)cccc1Cl [Example 62]	90
Cc1cc(OCC(=O)[C@H](CC(=O)O)NC(=O)[C@@H](NC(=O)C(=O)Nc2cccc3ccccc23)C(C)C)cc(=O)o1 [Example 8]	29
C[C@H](NC(=O)C(=O)NC1CCCCC1)C(=O)N[C@@H](CC(=O)O)C(=O)COP(=O)(c1ccccc1)c1ccccc1 [Example 56]	2.5
CC(C)[C@H](NC(=O)C(=O)Nc1cccc2ccccc12)C(=O)N[C@@H](CC(=O)O)C(=O)COC(=O)c1c(Cl)cccc1Cl [Example 4]	4
